meta.source: patent US4284639A

System: Puccinia recondita
measurement.description: Shoot treatment test/cereal rust (leaf-destructive mycosis)/protective
Assay type: in vivo
stated.conditions: 0.025 % by weight active compound in the spray liquor; wheat; after 10 days; protective
property.label: Infection in % of the untreated control (%)
Respond with the bare value in %.

Examples with answers:
O=C(c1ccc(Cl)cc1Cl)C(Oc1ccc(-c2ccccc2)cc1)n1cncn1 (stereo not shown)	10.0
CC(C)(C)C(O)C(Oc1ccc(Cl)cc1Cl)n1cncn1 (stereo not shown) [C, reference compound]	33.8
Cl.O=C(c1ccc(Cl)cc1Cl)C(Oc1ccc(Cl)cc1)n1cncn1 (stereo not shown)	12.5

Turning now to a further record.
What value of Infection in % of the untreated control has been reported for the following compound? CC(C)(C)C(=O)C(Oc1ccc(-c2ccccc2)cc1)n1cncn1 (stereo not shown) [B, reference compound] 33.8
